Sourced from patent US11286251B2

targetOrTestSystem: rhMMP-12 (Homo sapiens)
Sequence (P39900 106-470): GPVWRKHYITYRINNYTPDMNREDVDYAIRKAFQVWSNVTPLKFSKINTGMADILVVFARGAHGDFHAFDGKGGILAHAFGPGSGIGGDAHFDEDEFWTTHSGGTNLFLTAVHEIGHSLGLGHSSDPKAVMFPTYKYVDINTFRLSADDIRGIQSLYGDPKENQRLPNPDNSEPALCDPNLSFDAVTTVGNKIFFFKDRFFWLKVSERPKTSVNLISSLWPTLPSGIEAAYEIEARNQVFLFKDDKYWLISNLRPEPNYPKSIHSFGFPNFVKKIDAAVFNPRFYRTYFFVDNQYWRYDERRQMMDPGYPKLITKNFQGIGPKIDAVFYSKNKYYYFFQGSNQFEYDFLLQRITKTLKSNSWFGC
assayComment: MMP inhibition assay, fluorogenic substrate cleavage (Ki)
measurementLabel: Ki (nM)
Just the number in nM, nothing appended.

| compound | unitSymbol | Ki |
| --- | --- | --- |
| CNC(=O)[C@H](Cc1c[nH]c2ccccc12)NC(=O)[C@@H](CC(=O)NO)CC(C)C [GM-6001, reference compound] | nM | 0.57 |

For the next question, use this compound.
query: Specify reported Ki for the compound shown: "CC(C)C[C@H]1C(=O)N[C@H](C(=O)O)Cc2ccc(cc2)OCCC[C@@H]1C(=O)NO"
result: 1.7

###

targetOrTestSystem: UniProt:P08253
Sequence (P08253 110-660): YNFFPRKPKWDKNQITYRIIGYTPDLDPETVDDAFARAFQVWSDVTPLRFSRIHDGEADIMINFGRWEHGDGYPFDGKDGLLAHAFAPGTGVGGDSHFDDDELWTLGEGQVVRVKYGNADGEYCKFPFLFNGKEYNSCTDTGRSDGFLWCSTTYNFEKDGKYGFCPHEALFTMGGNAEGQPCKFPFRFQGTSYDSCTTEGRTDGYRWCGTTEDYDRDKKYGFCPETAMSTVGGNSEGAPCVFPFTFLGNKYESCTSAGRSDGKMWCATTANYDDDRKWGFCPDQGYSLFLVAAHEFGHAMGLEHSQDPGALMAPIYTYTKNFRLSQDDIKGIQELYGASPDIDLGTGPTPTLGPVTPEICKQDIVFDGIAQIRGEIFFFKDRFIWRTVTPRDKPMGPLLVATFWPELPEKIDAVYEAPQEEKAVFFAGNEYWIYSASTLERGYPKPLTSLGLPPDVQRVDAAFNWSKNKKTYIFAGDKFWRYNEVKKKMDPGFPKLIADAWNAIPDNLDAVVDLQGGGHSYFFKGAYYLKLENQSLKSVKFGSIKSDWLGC
assayComment: MMP inhibition assay, fluorogenic substrate cleavage (Ki)
conditionLabel: read-out: Ki rhMMP-2; mean ± SE
Documented Ki across a set of molecules
Just the number in nM, nothing appended.

| molecule | targetOrTestSystem | Ki [nM] |
| --- | --- | --- |
| CC(C)CC1C(=O)NC(C(=O)NC(CCCNC(=N)N)C(=O)NCCNC(=O)c2ccc(NN)nc2)Cc2ccc(cc2)OCCCC1C(=O)NO (stereo not drawn) [Compound 1] | UniProt:P08253 | 10.4 |

query: Specify reported Ki for the molecule shown: CNC(=O)[C@H](CCCNC(=N)N)NC(=O)[C@@H]1Cc2ccc(cc2)OCCC[C@H](C(=O)NO)[C@@H](CC(C)C)C(=O)N1 [Compound 19]
result: 5.8

query: Specify reported Ki for the molecule shown: CC(C)CC1C(=O)NC(C(=O)NCCOCCOCCOCCF)Cc2ccc(cc2)OCCCC1C(=O)NO (stereo not drawn) [Compound 17]
result: 8.6
